Molecular target: P2Y purinoceptor 2 (Homo sapiens, UniProt P41231)
Sequence (P41231 whole entry): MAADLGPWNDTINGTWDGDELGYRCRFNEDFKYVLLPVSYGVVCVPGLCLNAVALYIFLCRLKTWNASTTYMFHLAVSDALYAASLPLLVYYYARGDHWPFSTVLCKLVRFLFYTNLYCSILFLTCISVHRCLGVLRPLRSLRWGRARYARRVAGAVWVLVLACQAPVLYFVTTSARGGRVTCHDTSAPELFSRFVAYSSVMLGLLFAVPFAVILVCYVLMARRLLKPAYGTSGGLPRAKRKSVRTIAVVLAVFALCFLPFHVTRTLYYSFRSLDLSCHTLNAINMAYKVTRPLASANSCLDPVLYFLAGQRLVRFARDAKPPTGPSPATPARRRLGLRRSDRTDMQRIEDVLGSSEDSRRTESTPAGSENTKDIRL
Assay: Agonist activity at human P2Y2 receptor expressed in human 1321N1 cells assessed as stimulation of PLC-induced [3H]inositol phosphate production at 100 uM after 30 mins by scintillation counting relative to UTP
Type: functional, cell-based
In this section we review reported Emax values for a set of molecules.
// units = %; emit number, no label

Observe how each entry below is paired with its result.
# smiles_code, measured_result
measured = [
    ("O=c1[nH]c(=O)n([C@@H]2O[C@H](CCP(=O)(O)O)[C@@H](O)[C@H]2O)cc1-c1ccccc1", 53),
    ("O=c1[nH]c(=O)n([C@@H]2O[C@H](CCP(=O)(O)O)[C@@H](O)[C@H]2O)cc1-c1ccco1", 45),
    ("O=c1[nH]c(=O)n([C@@H]2O[C@H](CCP(=O)(O)O)[C@@H](O)[C@H]2O)cc1-c1csc2ccccc12", 45),
    ("N[C@@H]1[C@H](O)[C@@H](CCP(=O)(O)O)O[C@H]1n1ccc(=O)[nH]c1=O", 9),
]

[ask] Lab request: please report Emax under test system P2Y purinoceptor 2 (Homo sapiens, UniProt P41231) for O=c1[nH]c(=O)n([C@@H]2O[C@H](CCP(=O)(O)O)[C@@H](O)[C@H]2O)cc1-c1ccc(F)cc1
[reply] 43

[ask] Lab request: please report Emax under test system P2Y purinoceptor 2 (Homo sapiens, UniProt P41231) for Cc1ccc(-c2cn([C@@H]3O[C@H](CCP(=O)(O)O)[C@@H](O)[C@H]3O)c(=O)[nH]c2=O)cc1
[reply] 41

[ask] Lab request: please report Emax under test system P2Y purinoceptor 2 (Homo sapiens, UniProt P41231) for O=c1ccn([C@@H]2O[C@H](CCP(=O)(O)O)[C@@H](O)[C@H]2Cl)c(=O)[nH]1
[reply] 9

[ask] Lab request: please report Emax under test system P2Y purinoceptor 2 (Homo sapiens, UniProt P41231) for O=c1[nH]c(=O)n([C@@H]2O[C@H](CCP(=O)(O)O)[C@@H](O)[C@H]2O)cc1/C=C/c1ccccc1
[reply] 41

* * *

Target: P2Y purinoceptor 2 (Homo sapiens)
Test: Agonist activity at human P2Y2 receptor expressed in human 1321N1 cells assessed as stimulation of PLC-induced [3H]inositol phosphate production after 30 mins by scintillation counting
In this section we review reported pEC50 values for a set of compounds.
In textbook form, pEC50 equals minus log to base ten of the concentration in mol/L.

Observe how each entry below is paired with its result.
# compound, pEC50
measured = [
    ("O=c1ccn([C@@H]2O[C@H](CCP(=O)(O)O)[C@@H](O)[C@H]2O)c(=O)[nH]1", 5.29),
    ("O=c1[nH]c(=O)n([C@@H]2O[C@H](CCP(=O)(O)O)[C@@H](O)[C@H]2O)cc1/C=C/c1ccccc1", 5.51),
    ("O=c1ccn([C@@H]2O[C@H](COP(=O)(O)OP(=O)(O)OP(=O)(O)O)[C@@H](O)[C@H]2O)c(=O)[nH]1 [URIDINE TRIPHOSPHATE]", 7.70),
    ("O=c1[nH]c(=O)n([C@@H]2O[C@H](CCP(=O)(O)O)[C@@H](O)[C@H]2O)cc1-c1cccs1", 6.30),
    ("O=c1[nH]c(=O)n([C@@H]2O[C@H](CCP(=O)(O)O)[C@@H](O)[C@H]2O)cc1-c1ccccc1", 5.82),
]

[ask] Dear colleague, I am looking for the recorded pEC50 of the following compound: O=c1[nH]c(=O)n([C@@H]2O[C@H](CCP(=O)(O)O)[C@@H](O)[C@H]2O)cc1-c1ccc(F)cc1
[reply] 6.40

[ask] Dear colleague, I am looking for the recorded pEC50 of the following compound: O=c1[nH]c(=O)n([C@@H]2O[C@H](CCP(=O)(O)O)[C@@H](O)[C@H]2O)cc1-c1ccc2ccccc2c1
[reply] 5.68

[ask] Dear colleague, I am looking for the recorded pEC50 of the following compound: O=c1ccn([C@H]2[C@H](O)[C@H](O)[C@]3(CCP(=O)(O)O)C[C@H]23)c(=O)[nH]1
[reply] 5.40

[ask] Dear colleague, I am looking for the recorded pEC50 of the following compound: O=c1[nH]c(=O)n([C@@H]2O[C@H](CCP(=O)(O)O)[C@@H](O)[C@H]2O)cc1-c1ccco1
[reply] 6.15

[ask] Dear colleague, I am looking for the recorded pEC50 of the following compound: Cc1ccc(-c2cn([C@@H]3O[C@H](CCP(=O)(O)O)[C@@H](O)[C@H]3O)c(=O)[nH]c2=O)cc1
[reply] 6.00

FYI, the data here is from ChEMBL document CHEMBL1955746.
